- Target or test system: CYP1A2 (Homo sapiens (Human))
- Sequence (P05177 whole entry): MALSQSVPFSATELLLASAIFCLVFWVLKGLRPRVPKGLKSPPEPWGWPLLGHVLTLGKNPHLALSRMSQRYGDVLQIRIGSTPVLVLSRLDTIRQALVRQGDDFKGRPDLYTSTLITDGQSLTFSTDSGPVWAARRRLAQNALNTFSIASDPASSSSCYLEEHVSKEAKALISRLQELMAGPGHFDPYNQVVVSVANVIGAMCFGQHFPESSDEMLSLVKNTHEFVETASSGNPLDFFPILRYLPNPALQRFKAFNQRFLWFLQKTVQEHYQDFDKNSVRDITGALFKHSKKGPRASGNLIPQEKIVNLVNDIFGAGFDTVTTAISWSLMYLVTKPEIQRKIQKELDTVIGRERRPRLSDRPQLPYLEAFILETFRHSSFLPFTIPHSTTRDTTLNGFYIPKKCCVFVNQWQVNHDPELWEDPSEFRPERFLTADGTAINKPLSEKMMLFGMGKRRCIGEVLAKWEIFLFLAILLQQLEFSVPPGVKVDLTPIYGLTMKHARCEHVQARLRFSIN
pIC50: −log10 of the molar value.
Reported metric: pIC50

Reported pIC50 for CYP1A2 (Homo sapiens (Human)), given Cc1cnc(-c2cc(OC(C)C(C)O)cc(C(=O)N[C@H](C)c3cnc(C(F)(F)F)nc3)c2)s1 (single isomer, unassigned) ?
< 4.70

====

- Target or test system: human P2X2/3 receptor (Homo sapiens (Human), UniProt P56373+Q9UBL9)
- Sequence (P56373 whole entry): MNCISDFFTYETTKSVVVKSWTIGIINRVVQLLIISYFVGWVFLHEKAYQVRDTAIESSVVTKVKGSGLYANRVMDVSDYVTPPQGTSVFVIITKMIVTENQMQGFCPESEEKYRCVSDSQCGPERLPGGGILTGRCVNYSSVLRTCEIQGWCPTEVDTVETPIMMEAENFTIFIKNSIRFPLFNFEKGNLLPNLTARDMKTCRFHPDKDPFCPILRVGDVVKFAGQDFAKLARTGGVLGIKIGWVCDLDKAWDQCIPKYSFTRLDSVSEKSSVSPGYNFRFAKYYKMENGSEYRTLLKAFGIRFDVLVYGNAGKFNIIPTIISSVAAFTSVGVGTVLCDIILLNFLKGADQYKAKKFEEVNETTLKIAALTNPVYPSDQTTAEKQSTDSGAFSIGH
- Sequence (Q9UBL9 whole entry): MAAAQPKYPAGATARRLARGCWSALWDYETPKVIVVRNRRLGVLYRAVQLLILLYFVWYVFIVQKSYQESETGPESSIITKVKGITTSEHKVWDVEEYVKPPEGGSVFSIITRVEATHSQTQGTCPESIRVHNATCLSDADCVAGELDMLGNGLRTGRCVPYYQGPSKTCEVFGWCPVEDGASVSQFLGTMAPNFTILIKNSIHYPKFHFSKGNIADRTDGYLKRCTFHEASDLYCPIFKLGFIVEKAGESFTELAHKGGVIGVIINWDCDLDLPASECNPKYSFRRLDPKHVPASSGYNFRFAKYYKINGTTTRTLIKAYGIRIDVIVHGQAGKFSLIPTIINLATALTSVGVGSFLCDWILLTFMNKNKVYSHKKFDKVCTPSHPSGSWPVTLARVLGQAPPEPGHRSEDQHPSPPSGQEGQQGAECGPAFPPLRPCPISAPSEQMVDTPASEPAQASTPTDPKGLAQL
- Experiment: Intracellular calcium measurement (FLIPR, Fluo-4) of antagonist activity at human P2X2/3 receptors
- Type: cell-based
- Experimental context: human P2X2/3, FLIPR calcium assay, agonist α,β-Me-ATP; read-out: hP2X2/3 IC50
Can you tell me pIC50 for the items I'm about to list?
Give bare numbers, as −log10 of the molar value.

Worked set:
Tell me the measured pIC50 of Cc1cnc(-c2cc(OCC3(F)CN(C)C3)cc(C(=O)N[C@H](C)c3ccc(C(F)(F)F)nc3)c2)s1 , please.
6.09

Next entry: Cc1cnc(-c2cc(OCC3CC3)cc(C(=O)NC(C)c3ncc(F)cc3Cl)c2)s1 (racemic)
6.46

Also Cc1cnc(-c2cc(OC3(C)COC3)cc(C(=O)N[C@H](C)c3cnc(C(F)(F)F)nc3)c2)s1 , if possible.
6.79

Entry to check: Cc1cnc(-c2cc(OC3CCOCC3)cc(C(=O)N[C@H](C)c3cnc(C(F)(F)F)nc3)c2)s1
7.44

Thanks! And COc1ccc([C@@H](C)NC(=O)c2cc(OC3CCOCC3)cc(-c3ncc(C)s3)c2)cn1 ?
6.84

Batch request: pIC50 per item, same order as input.
1. Cc1ccc([C@@H](C)NC(=O)c2cc(O[C@@H]3CCOC3)cc(-c3ncc(C)s3)c2)nn1
2. Cc1cnc(-c2cc(OCC3CCOCC3)cc(C(=O)N[C@H](C)c3cnc(C(F)(F)F)nc3)c2)s1
3. Cc1cnc(-c2cc(OC[C@@H]3CNCCO3)cc(C(=O)N[C@H](C)c3cnc(C(F)(F)F)nc3)c2)s1
4. CCc1cnc(-c2cc(OC[C@@H]3CCCO3)cc(C(=O)N[C@H](C)c3cnc(C(F)(F)F)nc3)c2)s1

[6.37, 7.72, 5.93, 7.24]

The measured values listed here are drawn from patent US10174016B2.
